Data origin, for the record: patent US10399940B2

- MEASUREMENT_TARGET: F508delCFTR (Homo sapiens, UniProt P13569, DEL508-508)
- Construct: expressed in transfected cells; host or cells: CFBE41o- (human lung derived epithelial cell line), doxycycline-inducible expression
- Sequence (P13569 with tags, fused parts or gaps DEL508-508): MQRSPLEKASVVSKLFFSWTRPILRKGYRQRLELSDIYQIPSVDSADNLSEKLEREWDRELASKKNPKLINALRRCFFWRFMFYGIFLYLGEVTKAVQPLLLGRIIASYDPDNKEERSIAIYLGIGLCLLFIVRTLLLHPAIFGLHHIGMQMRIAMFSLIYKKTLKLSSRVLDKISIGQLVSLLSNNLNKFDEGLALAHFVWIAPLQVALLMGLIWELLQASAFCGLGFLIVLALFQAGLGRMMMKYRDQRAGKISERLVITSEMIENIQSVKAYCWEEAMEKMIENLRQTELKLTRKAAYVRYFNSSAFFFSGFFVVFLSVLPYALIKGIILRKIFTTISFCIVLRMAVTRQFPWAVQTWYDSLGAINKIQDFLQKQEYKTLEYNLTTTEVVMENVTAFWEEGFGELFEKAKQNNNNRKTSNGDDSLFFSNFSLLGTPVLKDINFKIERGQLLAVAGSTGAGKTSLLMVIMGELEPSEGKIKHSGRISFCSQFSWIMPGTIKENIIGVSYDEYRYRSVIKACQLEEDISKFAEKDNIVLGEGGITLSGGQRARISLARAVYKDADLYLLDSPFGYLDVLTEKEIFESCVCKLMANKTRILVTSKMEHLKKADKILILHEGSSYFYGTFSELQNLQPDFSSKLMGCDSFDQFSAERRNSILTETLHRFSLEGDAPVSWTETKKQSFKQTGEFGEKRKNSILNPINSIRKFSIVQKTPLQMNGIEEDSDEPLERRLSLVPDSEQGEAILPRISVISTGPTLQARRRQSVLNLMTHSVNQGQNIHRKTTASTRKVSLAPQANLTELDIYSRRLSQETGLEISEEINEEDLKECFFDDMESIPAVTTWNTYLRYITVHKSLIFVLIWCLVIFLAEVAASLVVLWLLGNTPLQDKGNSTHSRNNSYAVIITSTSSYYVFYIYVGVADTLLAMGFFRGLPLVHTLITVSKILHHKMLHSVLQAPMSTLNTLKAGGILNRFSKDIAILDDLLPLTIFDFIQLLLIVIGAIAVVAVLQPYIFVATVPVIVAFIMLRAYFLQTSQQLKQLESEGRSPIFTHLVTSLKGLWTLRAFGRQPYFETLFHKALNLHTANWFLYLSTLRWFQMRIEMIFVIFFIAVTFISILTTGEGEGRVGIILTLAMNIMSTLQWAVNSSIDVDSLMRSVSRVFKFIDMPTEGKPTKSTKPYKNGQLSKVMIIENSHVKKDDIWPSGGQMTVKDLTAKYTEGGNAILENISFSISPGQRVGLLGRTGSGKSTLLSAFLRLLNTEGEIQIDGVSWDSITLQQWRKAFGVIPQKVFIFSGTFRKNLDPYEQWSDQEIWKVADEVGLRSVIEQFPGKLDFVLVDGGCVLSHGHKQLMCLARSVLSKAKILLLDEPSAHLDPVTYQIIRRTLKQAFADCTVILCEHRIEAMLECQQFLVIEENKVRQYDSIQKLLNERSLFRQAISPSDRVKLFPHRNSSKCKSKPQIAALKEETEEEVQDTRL
- TEST_SUMMARY: Cell Surface Expression-Horse Radish Peroxidase (CSE-HRP) assay;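 as to Maximum % activity (without co-corrector): % of on-plate positive control (2 µM of the co-corrector compound) after DMSO subtraction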
- Type: cell-based
- CONDITIONS: CFBE41o-F508delCFTR-HRP cells; without co-corrector; normalized to on-plate positive control; highest concentration 20 μM
- Source text: Cell Surface Expression-Horse Radish Peroxidase (CSE-HRP) Assay […] The maximum % activity achieved for the test compound either without or with a co-corrector at any tested concentration is presented in Table 1 along with the respective EC50's calculated using the following general sigmoidal curve with variable Hill slope equation (described as Model 42 in the Accelrys® Assay Explorer v3.3 software): y=(a−d)/(1+(x/c)^b)+d […]
REPORTED_ENDPOINT: Maximum % activity (without co-corrector)

COMPOUND	MEASURED_VALUE
COc1ncc(C2CCCC2)cc1CO[C@H]1[C@H](C(C)(C)C)[C@@H](C(=O)O)N(C(=O)OC(C)C)[C@H]1c1ccccc1 [Example 44]	+ (<100)
COc1ncc(C(F)(F)F)cc1C#CCO[C@H]1[C@H](C(C)(C)C)[C@@H](C(=O)O)N(C(=O)OC(C)C)[C@H]1c1ccccc1 [Example 277]	+ (<100)
COc1ccc(C(F)(F)F)cc1CO[C@H]1[C@H](C(C)(C)C)[C@@H](C(=O)O)N(C(=O)N(C(C)C)C(C)C)[C@H]1c1ccccc1 (single isomer, unassigned) [Example 9]	+ (<100)

###

Let's look at some molecules and their measured EC50.
- MEASUREMENT_TARGET: F508delCFTR (Homo sapiens, UniProt P13569, DEL508-508)
- Construct: expressed in transfected cells; host or cells: CFBE41o- (human lung derived epithelial cell line), doxycycline-inducible expression
- TEST_SUMMARY: Cell Surface Expression-Horse Radish Peroxidase (CSE-HRP) assay
- Type: cell-based
- CONDITIONS: CFBE41o-F508delCFTR-HRP cells; with co-corrector (2 μM of 3-[(2R,4R)-4-({[1-(2,2-difluoro-1,3-benzodioxol-5-yl)cyclopropyl]carbonyl}amino)-7-methoxy-3,4-dihydro-2H-chromen-2-yl]benzoic acid); read-out: EC50 (with co-corrector)

Cc1cc(C)c2cc(CO[C@H]3[C@H](C(C)(C)C)[C@@H](C(=O)O)N(C(=O)[C@@H]4CCCCO4)[C@H]3c3ccccc3C)c(Cl)nc2c1 1 to 10 µM
COc1ncc(C(F)(F)F)cc1CO[C@H]1[C@H](C(C)(C)C)[C@@H](C(=O)O)N(C(=O)[C@@H]2CCCCO2)[C@H]1c1ccccc1-c1ccc(C(F)(F)F)nc1 1 to 10 µM
COc1ncc(C(F)(F)F)cc1CO[C@H]1[C@H](C(C)(C)C)[C@@H](C(=O)O)N(C(=O)[C@@H]2CCCCO2)[C@H]1c1ccccc1-c1cncnc1 1 to 10 µM

Please look at the following molecule next.
molecule COc1ncc(C(F)(F)F)cc1CO[C@H]1[C@H](C(C)(C)C)[C@@H](C(=O)O)N(C(=O)[C@@H]2CCCCO2)[C@H]1c1ccccc1CC(C)C , EC50 observed: < 1 µM

###

- MEASUREMENT_TARGET: F508delCFTR (Homo sapiens, UniProt P13569, DEL508-508)
- Construct: expressed in transfected cells; host or cells: CFBE41o- (human lung derived epithelial cell line), doxycycline-inducible expression
- TEST_SUMMARY: Cell Surface Expression-Horse Radish Peroxidase (CSE-HRP) assay
- Format: cell-based
- CONDITIONS: CFBE41o-F508delCFTR-HRP cells; test compound without co-corrector; 18-24 hours at 33° C.; read-out: EC50 (without co-corrector)
pEC50: −log10 of the molar value.
Let's look at some compounds and their measured pEC50.

compound COc1ncc(C(F)(F)F)cc1CO[C@H]1[C@H](C(C)(C)C)[C@@H](C(=O)O)N(C(=O)[C@@H]2CCCCO2)[C@H]1c1cccc2c1CCCC2 , pEC50 observed: > 6.00

compound COc1ccc(C(F)(F)F)cc1[C@](O)(CO)CO[C@H]1[C@H](C(C)(C)C)[C@@H](C(=O)O)N(C(=O)[C@@H]2CCCCO2)[C@H]1c1ccccc1C , pEC50 observed: 5.00 to 6.00

compound CN(C)c1ncc(C(F)(F)F)cc1CO[C@@H]1[C@@H](C(C)(C)C)[C@H](C(=O)O)N(C(=O)C2CCCCC2)[C@@H]1c1ccccc1 (racemic) , pEC50 observed: 5.00 to 6.00

###

- MEASUREMENT_TARGET: F508delCFTR (Homo sapiens, UniProt P13569, DEL508-508)
- Construct: expressed in transfected cells; host or cells: CFBE41o- (human lung derived epithelial cell line), doxycycline-inducible expression
- TEST_SUMMARY: Cell Surface Expression-Horse Radish Peroxidase (CSE-HRP) assay;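 as to Maximum % activity (without co-corrector): % of on-plate positive control (2 µM of the co-corrector compound) after DMSO subtraction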
- Assay type: cell-based
- CONDITIONS: CFBE41o-F508delCFTR-HRP cells; without co-corrector; normalized to on-plate positive control; highest concentration 20 μM
REPORTED_ENDPOINT: Maximum % activity (without co-corrector)

COc1ncc(C(C)(C)C)cc1CO[C@H]1[C@H](C(C)(C)C)[C@@H](C(=O)O)N(C(=O)[C@@H]2CCC[C@@H](OC)C2)[C@H]1c1ccccc1 +++ (≥200)
COc1ncc(C2CCC2)cc1CO[C@H]1[C@H](C(C)(C)C)[C@@H](C(=O)O)N(C(=O)C2CCCCC2)[C@H]1c1ccccc1Br ++ (≥100 and <200)
COc1nc2c(C)cccc2cc1CO[C@H]1[C@H](C(C)(C)C)[C@@H](C(=O)O)N(C(=O)[C@@H]2CCCCO2)[C@H]1c1ccccc1C ++ (≥100 and <200)
COc1ncc(C(F)(F)F)cc1CO[C@H]1[C@H](C(C)(C)C)[C@@H](C(=O)O)N(C(=O)[C@@H]2CCCCO2)[C@H]1c1cccc(Cl)c1C +++ (≥200)

###

Let's look at some molecules and their measured EC50.
- MEASUREMENT_TARGET: F508delCFTR (Homo sapiens, UniProt P13569, DEL508-508)
- Construct: expressed in transfected cells; host or cells: CFBE41o- (human lung derived epithelial cell line), doxycycline-inducible expression
- TEST_SUMMARY: Cell Surface Expression-Horse Radish Peroxidase (CSE-HRP) assay
- Assay type: cell-based
- CONDITIONS: CFBE41o-F508delCFTR-HRP cells; test compound without co-corrector; 18-24 hours at 33° C.; read-out: EC50 (without co-corrector)
- Excerpt: Cell Surface Expression-Horse Radish Peroxidase (CSE-HRP) Assay […] The maximum % activity achieved for the test compound either without or with a co-corrector at any tested concentration is presented in Table 1 along with the respective EC50's calculated using the following general sigmoidal curve with variable Hill slope equation (described as Model 42 in the Accelrys® Assay Explorer v3.3 software): y=(a−d)/(1+(x/c)^b)+d […]

These recorded examples may help you get a feel for the data.
COc1ccc(C(F)(F)F)cc1CO[C@H]1[C@H](C(C)(C)C)[C@@H](C(=O)O)N(C(=O)C2CCCCC2)[C@H]1c1ccccc1 < 1000 nM
[2H]C([2H])([2H])Oc1ccc(C(F)(F)F)cc1C([2H])([2H])O[C@H]1[C@H](C(C)(C)C)[C@@H](C(=O)O)N(C(=O)[C@@H]2CCCCO2)[C@H]1c1ccccc1C < 1000 nM

Please look at the following molecule next.
molecule COc1ccc(OC(F)(F)F)cc1CO[C@H]1[C@H](C(C)(C)C)[C@@H](C(=O)O)N(C(=O)[C@@H]2CCCCO2)[C@H]1c1ccccc1C , EC50 observed: < 1000 nM

###

- MEASUREMENT_TARGET: F508delCFTR (Homo sapiens, UniProt P13569, DEL508-508)
- Construct: expressed in transfected cells; host or cells: CFBE41o- (human lung derived epithelial cell line), doxycycline-inducible expression
- TEST_SUMMARY: Cell Surface Expression-Horse Radish Peroxidase (CSE-HRP) assay
- Type: cell-based
- CONDITIONS: CFBE41o-F508delCFTR-HRP cells; with co-corrector (2 μM of 3-[(2R,4R)-4-({[1-(2,2-difluoro-1,3-benzodioxol-5-yl)cyclopropyl]carbonyl}amino)-7-methoxy-3,4-dihydro-2H-chromen-2-yl]benzoic acid); read-out: EC50 (with co-corrector)
REPORTED_ENDPOINT: EC50

These recorded examples may help you get a feel for the data.
COc1ncc(C(F)(F)F)cc1CO[C@H]1[C@H](C(C)(C)C)[C@@H](C(=O)O)N(C(=O)[C@@H]2CCCO2)[C@H]1c1cccc(C2CCC2)c1 < 1000 nM
COc1ncc(C2CC2)cc1CO[C@H]1[C@H](C(C)(C)C)[C@@H](C(=O)O)N(C(=O)[C@@H]2CCCCO2)[C@H]1c1ccccc1C < 1000 nM
COc1ncc(C(F)(F)F)cc1CO[C@H]1[C@H](C(C)(C)C)[C@@H](C(=O)O)N(C(=O)OC(C)C)[C@H]1c1ccccc1C(C)C 1000 to 10000 nM
COc1ncc(-c2ccc(C)cc2)cc1CO[C@H]1[C@H](C(C)(C)C)[C@@H](C(=O)O)N(C(=O)OC(C)C)[C@H]1c1ccccc1 1000 to 10000 nM
COc1ccc(C(F)(F)F)cc1C(=O)CO[C@H]1[C@H](C(C)(C)C)[C@@H](C(=O)O)N(C(=O)[C@@H]2CCCCO2)[C@H]1c1ccccc1C 1000 to 10000 nM

Please look at the following compound next.
The recorded EC50 with F508delCFTR (Homo sapiens, UniProt P13569, DEL508-508) for COc1ncc(C(F)(F)F)cc1CO[C@H]1[C@H](C(C)(C)C)[C@@H](C(=O)O)N(C(=O)[C@@H]2CCCCO2)[C@H]1c1ccccc1C1=CCN(C)CC1 was 1000 to 10000 nM
